Biological target: hMPV F protein on hMPV/A virus (human metapneumovirus, subtype A, UniProt Q6WB98 19-539)
Sequence (Q6WB98 19-539): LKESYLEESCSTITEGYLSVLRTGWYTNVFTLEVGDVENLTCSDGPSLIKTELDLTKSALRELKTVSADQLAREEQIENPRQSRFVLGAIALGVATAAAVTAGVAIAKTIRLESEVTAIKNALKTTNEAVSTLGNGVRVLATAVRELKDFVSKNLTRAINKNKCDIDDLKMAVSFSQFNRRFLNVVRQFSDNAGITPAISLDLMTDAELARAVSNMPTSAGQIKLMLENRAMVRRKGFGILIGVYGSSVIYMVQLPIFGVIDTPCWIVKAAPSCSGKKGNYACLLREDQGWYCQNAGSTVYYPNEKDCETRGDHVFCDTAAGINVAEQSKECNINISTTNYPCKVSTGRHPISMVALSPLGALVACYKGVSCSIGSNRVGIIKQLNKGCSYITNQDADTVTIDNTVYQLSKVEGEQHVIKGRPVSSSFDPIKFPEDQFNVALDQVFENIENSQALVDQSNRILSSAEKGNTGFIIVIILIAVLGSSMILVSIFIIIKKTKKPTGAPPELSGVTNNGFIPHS
Assay: cell-based or functional assay
property measured: IC50, final serum dilution (µg/mL)
Give bare numbers, in µg/mL.

Field: example entries. Status: answers known.
>>> result("42C2 hIgG1 (antibody, V domains shown, Recombinant form with human IgG1 Fc) VH: QVTLKESGPGILQPSQTLSLTCSFSGFSLSTFGMGVVWTRQPSGKGLEWLAHIWWDDDNYYNPALKSRLTISKDTSKNQVFLKIANADTADTATYYCARIVKVLEQYFDVWGTGTTVTVSS VL: DIMMTQSHKFMSTSVGDRVIFTCKASQDVGTAVAWYQQKSGQSPKLLIYWASTRHTGVPDRFTGSGSGTDFTLTISNVQSEDLADYFCQQYTSYPLTFGAGTKLELKR")
0.0691
>>> result("13E10 hIgG1 (antibody, V domains shown, Recombinant form with human IgG1 Fc) VH: EVKLVESGGGLVQPGGSLSLSCAASGFTFTDYYMNWVRQPPGKALEWLGFIRNKDNGYTTEYSASVKGRFTISRDNSQSILYLQMNALRAEDSATYYCTRYYFGYDGDYFDYWGQGTTLTVSS VL: EIVLTQSPTTMAASPGEKITITCSASSSISSNYLHWYQQKAGFSPKLLIYRTSNLASGVPARFSGSGSGTSYSLTIGTMEAEDVATYYCQQGSSLPRTFGGGTKLEIKR")
0.0977

Next binder, please.
Qu. Identify the reported IC50, final serum dilution for the following entry. 17D10 (mouse) (antibody, V domains shown, Mouse IgG1 / kappa; also called Mouse 17D10 mAB; 17D10 mIgG) VH: QVQLQQPGAELVKPGASVKMSCKASGYTFTSYWITWVKQRPGQGLEWIGDIYPGSGSITYNEKFKTKATLTVDTSSSTAYMQLNSLTSEDSAVYYCAGLLRLTFDVWGTGTTVTVSS VL: DIQLTQTTSSLSASLGDRVTISCRASQDISNYLNWYQQKPDGTVKLLISYTSGLHSGVPSRFSGSGSGTDYSLTISNLEQEDIATYFCQQGNTLPWTFGGGTKLEIK
Ans. 0.0488
